Target Desc: Neurogenic locus notch homolog protein 3 (Homo sapiens)
Test Method Notes: small molecules binding NOTCH3 protein – biochemical, 635/667 nm fluorescence, primary screen (AID 1096)
Applied Conditions: small-molecule microarray, 635 nm fluorescence, higher = more signal
Hi, to clarify the labels: fulfilled covers composite z-score from 0.2 upward, not fulfilled covers anything below 0.2.

Consider the worked cases shown below.
COC(=O)[C@@]1(Cc2ccccc2)[C@H]2c3cc(C(=O)N(C)C)n(CCc4c[nH]c5ccc(O)cc45)c3C[C@H]2CN1C(=O)c1ccccc1
fulfilled
C=CCOC(=O)[C@H]1[C@@H]2C(=O)O[C@@H](c3ccccc3)[C@@H](c3ccccc3)N2[C@@H](c2ccc(OCCOC(=O)[C@H]3C[C@H]4C(=O)N[C@@H](CCCCN(C)C)C(=O)N4[C@H]3c3cccc(OCCO)c3)cc2)[C@]12C(=O)Nc1ccc(I)cc12
fulfilled
O[C@@H](Cc1ccccc1)[C@@H](/C=C/C1CC1)NCc1cccc(Cl)c1
not fulfilled

(Q) Dear colleague, could you confirm whether CCCCN1CC=CC23O[C@@H]4/C=C\CCCOC(=O)C4[C@H]2C(=O)N(CCCCCO)[C@@H]3C1=O (stereo not given in full) has composite z-score at or above 0.2?
(A) not fulfilled

(Q) Can O=C(CS)NCCCCCNC(=O)[C@@H]1C[C@@H]2C(=O)NCC(=O)N2[C@@H]1c1ccc(O)cc1 be said to have composite z-score at or above 0.2?
(A) not fulfilled

###

Test system: Human papillomavirus type 1a protein E7 (residues 44-93)
Test Method Notes: small molecules binding HPV E7 44-93 – biochemical, small-molecule microarray, residues 44-93, 635 nm fluorescence, primary screen (AID 1108);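 note: E7 fragment applied at 1 µg/mL in TBST for 1 h at 4 C; score combines spot fluorescence with its signal to noise ratio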
Applied Conditions: fluorescence 635 nm, higher = more signal
composite z-score: recorded values
Quick one: just the number, no unit, thanks!

O[C@@H](Cc1ccccc1)[C@@H](/C=C/C1CC1)NCc1cccc(Cl)c1
-0.597

Form field composite z-score for item COC(=O)[C@@]1(CCC(=O)OC(C)(C)C)N=C(c2ccc(OCCCO)cc2)O[C@H]1c1ccccc1 on Human papillomavirus type 1a protein E7 (residues 44-93): 0.255

Tested on Human papillomavirus type 1a protein E7 (residues 44-93): CCCC(=O)N(CCc1c[nH]c2ccccc12)[C@@H]1CC(C(=O)NCCO)=C[C@H](Oc2c(I)cc(CO)cc2OC)[C@H]1O . Observed composite z-score: 0.434

Param item: C=CCNC(=O)[C@@H]1[C@H]2C(=O)O[C@H](c3ccccc3)[C@H](c3ccccc3)N2[C@H](c2ccc(OCCO)cc2)[C@@]12C(=O)N(C(=O)OCCOC)c1ccc(C#CCNC(N)=O)cc12 ; param system: Human papillomavirus type 1a protein E7 (residues 44-93); output composite z-score: 0.79

The recorded composite z-score with Human papillomavirus type 1a protein E7 (residues 44-93) for C=C(CCCC)C(=O)CC[C@H](OC(=O)c1cccnc1)c1ccc(OCCO)cc1 was -0.574

Assay Human papillomavirus type 1a protein E7 (residues 44-93), sample CN(C)CCCCCCNC(=O)[C@@H]1C[C@@H]2C(=O)N[C@@H](CCCC[N+](C)(C)C)C(=O)N2[C@@H]1c1ccc(O)cc1 , composite z-score read: -1.27

Log: Human papillomavirus type 1a protein E7 (residues 44-93), compound O=C1OCCC=C[C@H]2OC34C=CCN(Cn5nnc6ccccc65)C(=O)[C@H]3N(CCO)C(=O)[C@@H]4C12 (stereo partly specified) , composite z-score = -1.59

I looked up CC(=O)NCCCC[C@@H]1NC(=O)[C@H]2C[C@@H](C(=O)NCCCCCNC(=O)CS)[C@@H](c3ccc(O)cc3)N2C1=O and its composite z-score for Human papillomavirus type 1a protein E7 (residues 44-93) was 0.46

Field composite z-score (Human papillomavirus type 1a protein E7 (residues 44-93)), entry CO[C@H]1O[C@H](CO)[C@@H](OC(=O)Nc2ccccc2)[C@@H]2OC(=O)[C@@H](Cc3ccc4ccccc4c3)C/C=C/C[C@H](Cc3ccc4ccccc4c3)C(=O)O[C@@H]12 : 0.601

Here COc1ccc(CCNC(=O)[C@@]2(C)c3ccccc3C(=O)N(c3ccc(C)cn3)[C@H]2c2ccc(CO)cc2)cc1 was tested on Human papillomavirus type 1a protein E7 (residues 44-93), and its composite z-score came to -0.992

# value of composite z-score, Human papillomavirus type 1a protein E7 (residues 44-93), item O=C(CS)NCCCCCNC(=O)[C@H]1C[C@H]2C(=O)NCC(=O)N2[C@H]1c1ccc(O)cc1 = -1.12
